assay: Bioavailability in dog at 2 mg/kg, po and 1 mg/kg, iv; assay type: ADME, organism-based, Canis lupus familiaris; settings: in vivo
quantity-name: bioavailability (%)
Lab book: enter the figure in %, no units written.

COc1cc2ncnc(Nc3cccc(Cl)c3F)c2cc1CN(C)[C@@H](C)C(N)=O | 63

Consider the additional compound presented here.
Quick check: bioavailability of "COc1cc2ncnc(Nc3cccc(Cl)c3F)c2cc1CN1CCC[C@H]1C(N)=O" ? 88

====

assay: Clearance in rat; type: ADME, organism-based; conditions: in vivo
quantity-name: clearance (L/h/kg)
Lab book: enter the figure in L/h/kg, no units written.

Known clearance results, listed for orientation:
COc1cc2ncnc(Nc3cccc(Cl)c3F)c2cc1CN(C)C1(C(N)=O)CN(C)C1 | 3.3
COc1cc2ncnc(Nc3cccc(Cl)c3F)c2cc1CN(C)C1(C(N)=O)CN(C(C)C)C1 | 3.66

Quick check: clearance of "COCCN1CC(C(N)=O)(N(C)Cc2cc3c(Nc4cccc(Cl)c4F)ncnc3cc2OC)C1" ? 2.1

Try the compound "COc1cc2ncnc(Nc3cccc(Cl)c3F)c2cc1CN(C)C1(C(N)=O)CCN(C)CC1" 3.3

Try the compound "COc1cc2ncnc(Nc3cccc(Cl)c3F)c2cc1CN(C)C1(C(N)=O)CCN(C(C)C)CC1" 6.84

====

test: Clearance in rat at 5 mg/kg, po and 2 mg/kg, iv; type: ADME, organism-based; conditions: in vivo
Each entry below carries its recorded clearance.
Lab book: enter the figure in mL/min/kg, no units written.

COc1cc2ncnc(Nc3cccc(Cl)c3F)c2cc1CN1CCC[C@H]1C(N)=O | 3

Quick check: clearance of "COc1cc2ncnc(Nc3cccc(Cl)c3F)c2cc1CN(C)[C@@H](C)C(N)=O" ? 12

Try the compound "COc1cc2ncnc(Nc3cccc(Cl)c3F)c2cc1CN(C)[C@H](C)C(N)=O" 6

====

assay: Solubility in phosphate buffer at pH 7.4; format: physicochemical
quantity-name: solubility (µM)
Lab book: enter the figure in µM, no units written.

Known solubility results, listed for orientation:
COc1cc2ncnc(Nc3cccc(Cl)c3F)c2cc1CN1CCC[C@H]1C(N)=O | 260
COc1cc2ncnc(Nc3cccc(Cl)c3F)c2cc1CN(C)[C@H](C)C(N)=O | 40
COc1cc2ncnc(Nc3cccc(Cl)c3F)c2cc1CN(C(C)C)[C@@H](C)C(N)=O | 1

Quick check: solubility of "COc1cc2ncnc(Nc3cccc(Cl)c3F)c2cc1CN(C)[C@@H](C)C(N)=O" ? 40

====

assay: Volume of distribution in rat at 5 mg/kg, po and 2 mg/kg, iv; type: ADME, organism-based; conditions: in vivo, read-out: Vdss
Each entry below carries its recorded Vd.
Lab book: enter the figure in L/kg, no units written.

Known Vd results, listed for orientation:
COc1cc2ncnc(Nc3cccc(Cl)c3F)c2cc1CN1CCC[C@H]1C(N)=O | 0.7
COc1cc2ncnc(Nc3cccc(Cl)c3F)c2cc1CN(C)[C@H](C)C(N)=O | 0.6

Consider the additional molecule presented here.
Quick check: Vd of "COc1cc2ncnc(Nc3cccc(Cl)c3F)c2cc1CN(C)[C@@H](C)C(N)=O" ? 0.8

====

experiment: Clearance in dog at 2 mg/kg, po and 1 mg/kg, iv; type: ADME, organism-based, Canis lupus familiaris; conditions: in vivo
quantity-name: clearance
Reply with the number, then its unit.

COc1cc2ncnc(Nc3cccc(Cl)c3F)c2cc1CN1CCC[C@H]1C(N)=O | 5 mL/min/kg

Consider the additional compound presented here.
Quick check: clearance of "COc1cc2ncnc(Nc3cccc(Cl)c3F)c2cc1CN(C)[C@@H](C)C(N)=O" ? 14 mL/min/kg
